I'd be grateful if you could share measured lowest phenotypically active concentration for these entries.
# System: WPMY1-TUBA1B-RELA
# EXPERIMENTAL PROTOCOL: lowest phenotypically active concentration; higher = less potent
# MEASUREMENT SETUP: treatment time: 24 h
Counter-ions that a name gives are not always drawn.

>  <MOLECULE>
Cc1sc2c(c1C)C(c1ccc(Cl)cc1)=N[C@@H](CC(=O)OC(C)(C)C)c1nnc(C)n1-2

>  <RESULT>
1 µM

$$$$

Would you mind giving lowest phenotypically active concentration for every molecule in the list below?
1. CC[C@H]1CN2CC[C@H]1C[C@@H]2[C@@H](O)c1ccnc2ccc(OC)cc12 [Hydroquinidine HCl]
2. CC[C@@H](C(=O)[C@@H](C)[C@@H](O)[C@H](C)[C@@H]1O[C@@H]([C@@H](CC)C(=O)O)CC[C@@H]1C)[C@H]1O[C@]2(C=C[C@@H](O)[C@]3(CC[C@@](C)([C@H]4CC[C@](O)(CC)[C@H](C)O4)O3)O2)[C@H](C)C[C@@H]1C [Salinomycin Sodium]

1: 9 µM; 2: ≤ 0.3 µM

Would you mind giving lowest phenotypically active concentration for every molecule in the list below?
1. CCN1CCN(C(=O)Cc2ccc(Nc3ncc(F)c(Nc4ccc(C(=O)Nc5ccccc5Cl)cc4)n3)cc2)CC1
2. C=C(C)[C@H]1Cc2c(ccc3c2O[C@@H]2COc4cc(OC)c(OC)cc4[C@@H]2C3=O)O1 [Rotenone]
3. N#CC(C#N)=NNc1cccc(Cl)c1
4. CN1C[C@H](C(=O)N[C@]2(C)O[C@@]3(O)[C@@H]4CCCN4C(=O)[C@H](Cc4ccccc4)N3C2=O)C=C2c3cccc4[nH]cc(c34)C[C@H]21 [ergotamine]
5. C[C@]12CC[C@H]3[C@@H](CC[C@]4(O)C[C@@H](O)CC[C@]34C=O)[C@@]1(O)CC[C@@H]2C1=CC(=O)OC1 [Strophanthidin]

1: 1 µM; 2: 1 µM; 3: 3 µM; 4: 3 µM; 5: ≤ 0.3 µM

###

# Tested on: WPMY1-TP53BP1-CLTA
# EXPERIMENTAL PROTOCOL: phenotypically active (imaging signature differs from DMSO and reproducible) at any of 0.3-9 uM (binary (1 = active, 0 = inactive)); higher = active
# MEASUREMENT SETUP: treatment time: 24 h
Where a name gives a salt, the structure may show the parent alone.
I'd be grateful if you could share measured phenotypically active for these entries.
Give bare numbers.

>  <COMPOUND>
Cc1nnc2n1-c1ccc(Cl)cc1C(c1ccccc1)=NC2

>  <TESTED TARGET>
WPMY1-TP53BP1-CLTA

>  <phenotypically active>
0

$$$$
>  <COMPOUND>
N#CC(O[C@@H]1O[C@H](CO[C@@H]2O[C@H](CO)[C@@H](O)[C@H](O)[C@H]2O)[C@@H](O)[C@H](O)[C@H]1O)c1ccccc1 (some centres not stated)

>  <TESTED TARGET>
WPMY1-TP53BP1-CLTA

>  <phenotypically active>
0

$$$$
>  <COMPOUND>
CC[C@]12C=CCN3CC[C@]4(C(=C(C(=O)OC)C1)Nc1ccccc14)[C@@H]32 [Tabersonine dichlorhydrate]

>  <TESTED TARGET>
WPMY1-TP53BP1-CLTA

>  <phenotypically active>
1

$$$$
>  <COMPOUND>
C[C@]12Cc3cn[nH]c3C[C@@H]1CC[C@@H]1[C@@H]2CC[C@@]2(C)[C@H]1CC[C@]2(C)O

>  <TESTED TARGET>
WPMY1-TP53BP1-CLTA

>  <phenotypically active>
0

$$$$
>  <COMPOUND>
C[C@@H]1NCCc2cc(O)c(O)cc21 [Salsolinol hydrobromide]

>  <TESTED TARGET>
WPMY1-TP53BP1-CLTA

>  <phenotypically active>
0

$$$$

Would you mind giving phenotypically active for every compound in the list below?
1. CC(C)C[C@H]1C(=O)N2CCC[C@H]2[C@]2(O)O[C@](NC(=O)[C@@H]3C=C4c5cccc6[nH]c(Br)c(c56)C[C@H]4N(C)C3)(C(C)C)C(=O)N12
2. CNCC(O)c1ccc(O)c(OC)c1 (stereo not drawn) [Metanephrine hydrochloride DL]

1
0

###

# Test system: HepG2-TUBA1B-RELA
# EXPERIMENTAL PROTOCOL: phenotypically active (imaging signature differs from DMSO and reproducible) at any of 0.3-9 uM (binary (1 = active, 0 = inactive)); higher = active
# MEASUREMENT SETUP: treatment time: 24 h
Valid outcomes are listed here; reply with one: T for active, F for inactive

>  <MOLECULE>
C/C=C1\C[C@@H](C)[C@](O)(CO)C(=O)OCC2=CCN3CC[C@@H](OC1=O)[C@@H]23

>  <CATEGORY LABEL>
F

$$$$
>  <MOLECULE>
C=C1[C@@H](O)C2C=CC[C@H](C)C(=O)[C@](C)(O)C=C[C@@H](OC(C)=O)[C@]23C(=O)N[C@H](Cc2ccccc2)[C@@H]3[C@@H]1C (stereo partly drawn)

>  <CATEGORY LABEL>
T

$$$$
>  <MOLECULE>
C[C@H]1CCCC=C[C@@H]2C[C@H](O)C[C@H]2[C@H](O)C=CC(=O)O1

>  <CATEGORY LABEL>
T

$$$$
>  <MOLECULE>
Cc1ccc(C[N+](C)(C)C)o1 [5-Methylfurmethiodide]

>  <CATEGORY LABEL>
F

$$$$
>  <MOLECULE>
COc1cc2c(c(OC)c1OC)-c1ccc(O)c(=O)cc1[C@@H](N)CC2

>  <CATEGORY LABEL>
T

$$$$
>  <MOLECULE>
CNC(=O)Oc1ccc2c(c1)[C@]1(C)CCN(C)O[C@@H]1N2C

>  <CATEGORY LABEL>
F

$$$$

Recorded test call requested for COc1ccc(N(C(=O)Oc2c(C)cccc2C)c2ccnc(Nc3ccc(N4CCN(C)CC4)cc3)n2)c(OC)c1
T

Recorded test call requested for COc1ccc(CCN2CCC(Nc3nc4ccccc4n3Cc3ccc(F)cc3)CC2)cc1
T

###

# Test system: A549-TUBA1B-RELA
# EXPERIMENTAL PROTOCOL: phenotypically active (imaging signature differs from DMSO and reproducible) at any of 0.3-9 uM (binary (1 = active, 0 = inactive)); higher = active
# MEASUREMENT SETUP: treatment time: 24 h
Counter-ions that a name gives are not always drawn.
I'd be grateful if you could share measured phenotypically active for these entries.
One number for each entry.

Illustrative cases are given below, each with its answer.
>  <COMPOUND>
CN1C2CCC1CC(O)C2 (configuration not stated) [Tropine]

>  <phenotypically active>
0

$$$$
>  <COMPOUND>
COc1ccc2c(c1)/C(=C/c1c[nH]cn1)C(=O)N2

>  <phenotypically active>
1

$$$$
>  <COMPOUND>
CCCN1CCC[C@@H]2Cc3n[nH]cc3C[C@H]21 [(-)-Quinpirole hydrochloride]

>  <phenotypically active>
0

$$$$
>  <COMPOUND>
C[N+]1([O-])[C@@H]2C[C@@H](OC(=O)[C@H](CO)c3ccccc3)C[C@H]1[C@@H]1O[C@@H]12 (some centres not stated) [Genoscopolamine HBr]

>  <phenotypically active>
0

$$$$
>  <COMPOUND>
N#Cc1c(Oc2cccc(OS(=O)(=O)CCCC(F)(F)F)c2)cccc1C(F)(F)F

>  <phenotypically active>
0

$$$$
>  <COMPOUND>
C[C@@]12C(=O)OC(=O)[C@]1(C)[C@H]1CC[C@@H]2O1 [Cantharidin]

>  <phenotypically active>
0

$$$$
>  <COMPOUND>
Fc1ccccc1C1=NCC(=S)N(CC(F)(F)F)c2ccc(Cl)cc21 [quazepam]

>  <phenotypically active>
0

$$$$
>  <COMPOUND>
CO[C@H](C)[C@](O)(C(=O)OCC1=CCN2CC[C@H](O)[C@@H]12)C(C)C [Heliotrine]

>  <phenotypically active>
0

$$$$
>  <COMPOUND>
O=C1NC(=S)N(c2cccc(Br)c2)C(=O)/C1=C/c1ccco1

>  <phenotypically active>
1

$$$$
>  <COMPOUND>
CCC1(CC)C(=O)NC(=O)N(C)C1=O [metharbital]

>  <phenotypically active>
0

$$$$

Would you mind giving phenotypically active for every compound in the list below?
1. O=C1C[C@@H]2OCC=C3CN4CC[C@]56c7ccccc7N1[C@H]5[C@H]2[C@H]3C[C@H]46 [Strychnine]
2. C[C@]12CC[C@H](O)C[C@H]1CC[C@@H]1[C@@H]2C[C@@H](O)[C@]2(C)[C@@H](C3=CC(=O)OC3)CC[C@]12O [Digoxigenin]
3. CC(C)[N+](C)(CCC(C(N)=O)(c1ccccc1)c1ccccc1)C(C)C [isopropamide-iodide]
4. C[C@@]1(CO)[C@H](O)CC[C@@]2(C)[C@H]1CC[C@H]1C[C@@H]3C[C@@]12CC[C@]3(O)CO [Aphidicolin]

1: 0; 2: 1; 3: 0; 4: 1
